- System: EAAT2
- ASSAY_NAME: EAAT2 protein levels in PA-EAAT2 cells by Western blot
- Type: cell-based, human
- ASSAY_CONDITIONS: compound 10 μM, 4 h incubation, PA-EAAT2 cells, relative to DMSO controls; na = not active
I'd be grateful if you could share measured Fold increase for EAAT2, 4 h for these entries.
Number in fold, nothing else.

Which value of Fold increase for EAAT2, 4 h has been reported for `Fc1cccc(F)c1CSc1ccc(-c2ccccn2)nn1` in the records? 2.1

# Fold increase for EAAT2, 4 h lookup, item `Fc1cccc(Cl)c1CCOc1ccc(-c2ccccn2)nn1` 2.2

Which Fold increase for EAAT2, 4 h is listed for `Cc1ccccc1COc1ccc(-c2ccccn2)nc1` ? 1.5

Record request: Fold increase for EAAT2, 4 h value, item `O=S(=O)(Cc1ccccc1Cl)c1ccc(-c2ccccn2)nn1` 1.6
